system-name: T1, recombinant human HER2 extracellular domain protein (human, UniProt P04626 23-652)
T1 construct: range 23-652; Range is printed for the immunogen/panning protein; also called ErbB2; recombinant HER2 protein
protocol-text: BLI, Protein A capture
Recorded koff, one value per entry.
Answer format: numeric, s⁻¹ implied, no suffix.

# annotated cases, reported koff shown
>  <binder>
Hu2117HK-Mu25 (Fc fusion, scFv-hIgG1 Fc; not shown: human IgG1 Fc) scFv: EVQLVESGGGLVQPGGSLRLSCAASGFTYSSYGMSWVRQAPGKGLEWVASISGGGSYTKYPDSVKGRFTISRDNSKNTLYLQMNSLRAEDTAVYYCARDYAGFFDVWGQGTLVTVSSGGGGSGGGGSGGGGSDIQMTQSPSSLSASVGDRVTITCRSSQSLVHSNSNTYLHWYQQKPGKAPKLLIYKVSNRFSGVPSRFSGSGSGTDFTLTISSLQPEDFATYFCSQSTHVPYTFGQGTKVEIK

>  <result-unit>
s⁻¹

>  <observed>
0.00056

$$$$
>  <binder>
Hu2117HK-Mu28 (Fc fusion, scFv-hIgG1 Fc; not shown: human IgG1 Fc) scFv: EVQLVESGGGLVQPGGSLRLSCAASGFTYSSYGMSWVRQAPGKGLEWVASISGGGSYTKYPDSVKGRFTISRDNSKNTLYLQMNSLRAEDTAVYYCARDYAGFFDVWGQGTLVTVSSGGGGSGGGGSGGGGSDIQMTQSPSSLSASVGDRVTITCRSSQSLVHSNTNTYLHWYQQKPGKAPKLLIYKVSNRFSGVPSRFSGSGSGTDFTLTISSLQPEDFATYFCSQSTHVPYTFGQGTKVEIK

>  <result-unit>
s⁻¹

>  <observed>
0.000592

$$$$

Recorded koff (binder Hu2117HK-Mu42 (Fc fusion, scFv-hIgG1 Fc; not shown: human IgG1 Fc) scFv: EVQLVESGGGLVQPGGSLRLSCAASGFTYSSYGMSWVRQAPGKGLEWVASISGSGSYTKYPDSVKGRFTISRDNSKNTLYLQMNSLRAEDTAVYYCARDYAGFFDVWGQGTLVTVSSGGGGSGGGGSGGGGSDIQMTQSPSSLSASVGDRVTITCRSSQSLVHSNGNTYLHWYQQKPGKAPKLLIYKVSNRFSGVPSRFSGSGSGTDFTLTISSLQPEDFATYFCSQSTHVPYTFGQGTKVEIK ): 0.00178
